Values compiled from patent US11723877B2.

- EXPERIMENTAL_PROTOCOL: physchem
- CONDITION_LABEL: aqueous buffer
VALUE_KIND: solubility

In [3]: df
Out[3]:
                                   molecule  value_kind  assay_value
0  CC(C)Cc1ccc(C(C)C(=O)O)cc1 (stereo not shown) [uncoated ibuprofen, ibuprofen]  solubility    < 1000 µM
